Tested on: MT-4 cells
Assay: MT-4 proliferation assay
Format: cell-based, human
Conditions: Homo sapiens, MT4, 120 h; Table 1; 5 days, Cell Titer Glo; method text calls it EC50; read-out: MT4 Assay, (IC50)
Experimental: MT-4 Proliferation Assay: Compounds were tested in a standardized high-throughput 384-well assay format. […] After 5 days, 22 μL Cell Titer Glo (Promega) was added to the assay plates with a Biotek uFlow Workstation. Plates were subsequently placed on a Perkin Elmer Envision Plate Reader for 5 minutes before the luminescence signal was read.
In plain terms, low IC50, meaning strictly below 50 nM, gives true (1), and everything else gives false (0).

* Cc1nc2cc(-c3c(C)noc3C)cc(-c3c(C)n[nH]c3C)c2[nH]1 | true (1)
* Cc1ccc2ncccc2c1-c1cc(-c2c(C)noc2C)cc2[nH]c(C(O)CCO)nc12 (centres unmarked) | false (0)
* Cc1noc(C)c1-c1cc(/C=C/c2ccccc2)c2[nH]c(C3CC3)nc2c1 | false (0)
* Cc1ccc2ncccc2c1-c1cc(-c2c(C)noc2C)cc2[nH]c(C(F)(F)F)nc12 | false (0)
* Cc1noc(C)c1-c1cc(C(C)c2ccc(F)cc2)c2[nH]c(C3CC3)nc2c1 (centres unmarked) | false (0)
* Cc1cnn(C)c1-c1cc(-c2c(C)noc2C)cc2nc(C3CC3)[nH]c12 | true (1)
* Cc1noc(C)c1-c1cc(NC2CCCC2)c2nc(C3CC3)[nH]c2c1 | false (0)
* Cc1ccc2ncccc2c1-c1cc(-c2c(C)noc2C)cc2nc(C3CC3)n(C)c12 | true (1)
* CSc1nc2c(S(=O)(=O)NC3CCCC3)cc(-c3c(C)noc3C)cc2[nH]1 | false (0)
* Cc1noc(C)c1-c1cc(C(O)C2CCCC2)c2nc(C3CC3)[nH]c2c1 (centres unmarked) | true (1)
* CC/C=C(\CC)c1cc(-c2c(C)noc2C)cc2nc(C3CC3)[nH]c12 | false (0)
* Cc1n[nH]c(C)c1-c1cc(-c2c(C)noc2C)cc2nc(N)[nH]c12 | false (0)
* Cc1ccc2ncccc2c1-c1cc(-c2c(C)noc2C)cc2[nH]c(-c3cnn(C)c3)nc12 | true (1)
* CCC(O)(CC)c1cc(-c2c(C)noc2C)cc2c1nc(C1CC1)n2C | false (0)
* Cc1noc(C)c1-c1cc(N2C(=O)CCC2C)c2nc(C3CC3)[nH]c2c1 (centres unmarked) | false (0)
* Cc1n[nH]c(C)c1-c1cc(-c2c(C)noc2C)cc2[nH]c(NC3CC3)nc12 | true (1)
* Cc1noc(C)c1-c1cc(-c2cccnc2-c2ccccc2)c2nc(C3CC3)[nH]c2c1 | true (1)
* Cc1noc(C)c1-c1cc(S(=O)(=O)NC2CCCC2)c2nc(NCC3CC3)[nH]c2c1 | false (0)
* Cc1n[nH]c(C)c1-c1cc(-c2c(C)noc2C)cc2nc(C3CC3)n(C)c12 | true (1)
* Cc1n[nH]c(C)c1-c1cc(-c2c(C)noc2C)cc2[nH]c(NCC3CC3)nc12 | true (1)
* CCC1CCC(=O)N1c1cc(-c2c(C)noc2C)cc2[nH]c(C3CC3)nc12 (centres unmarked) | false (0)
* Cc1ccnc(C)c1-c1cc(-c2c(C)noc2C)cc2nc(C3CC3)[nH]c12 | true (1)
* Cc1n[nH]c(C)c1-c1cc(-c2c(C)noc2C)cc2nc(C3CC3(F)F)[nH]c12 (centres unmarked) | true (1)
* Cc1noc(C)c1-c1cc(S(=O)(=O)NC2CCCC2)c2nc(Cc3ccccc3)[nH]c2c1 | false (0)
* Cc1ccnc(C)c1-c1cc(-c2c(C)noc2C)cc2[nH]cnc12 | false (0)
* COc1nc2c(-c3c(C)ccc4ncccc34)cc(-c3c(C)noc3C)cc2[nH]1 | true (1)
* Cc1noc(C)c1-c1cc(S(=O)(=O)NC2CCCC2)c2nc(NCC(F)(F)F)[nH]c2c1 | false (0)
